Assay: activity coefficient (dimensionless); of the first substance listed, at infinite dilution; xn = mol fraction of the nth substance listed
Details: 323.15 K; Liquid; Chromatography; x1 = 0
Reported activity coefficient values for a set of compounds
Form rule: numeric answer, no unit written next to it.

C1CCCCC1 [cyclohexane] + CCCCCCCCn1cc[n+](COCCCOC[n+]2ccn(CCCCCCCC)c2C)c1C.O=S(=O)([N-]S(=O)(=O)C(F)(F)F)C(F)(F)F.O=S(=O)([N-]S(=O)(=O)C(F)(F)F)C(F)(F)F    2.41
CCC(C)=O [butanone] + CCCOC[n+]1ccn(C)c1.F[B-](F)(F)F    1.73
CCC(C)CC [3-methylpentane] + CCCOC[n+]1ccn(Cc2ccccc2)c1.N#C[N-]C#N    28.5
CCCC(C)=O [pentan-2-one] + CCCCCCCCn1cc[n+](COCCCOC[n+]2ccn(CCCCCCCC)c2C)c1C.O=S(=O)([N-]S(=O)(=O)C(F)(F)F)C(F)(F)F.O=S(=O)([N-]S(=O)(=O)C(F)(F)F)C(F)(F)F    0.29
Cc1ccccc1C [1,2-dimethylbenzene] + CCCCCCCCn1cc[n+](COCCC)c1C.N#C[N-]C#N    1.33

Now let's try a different one.
Entry CC(C)CO [2-methyl-1-propanol] + CN(C)c1cc[n+](COCCCOC[n+]2ccc(N(C)C)cc2)cc1.O=S(=O)([N-]S(=O)(=O)C(F)(F)F)C(F)(F)F.O=S(=O)([N-]S(=O)(=O)C(F)(F)F)C(F)(F)F has what activity coefficient? 1.85

Origin of values: the NIST ThermoML archive (doi:10.1016/j.fluid.2014.11.020)
